Where these numbers come from: ChEMBL document CHEMBL1961873

- TARGET OF ASSAY: Tyrosine-protein kinase receptor TYRO3 (Homo sapiens) (UniProt Q06418);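 note: reported percentages are averaged inhibition values of TYRO3 kinase activity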
- Sequence (Q06418 whole entry): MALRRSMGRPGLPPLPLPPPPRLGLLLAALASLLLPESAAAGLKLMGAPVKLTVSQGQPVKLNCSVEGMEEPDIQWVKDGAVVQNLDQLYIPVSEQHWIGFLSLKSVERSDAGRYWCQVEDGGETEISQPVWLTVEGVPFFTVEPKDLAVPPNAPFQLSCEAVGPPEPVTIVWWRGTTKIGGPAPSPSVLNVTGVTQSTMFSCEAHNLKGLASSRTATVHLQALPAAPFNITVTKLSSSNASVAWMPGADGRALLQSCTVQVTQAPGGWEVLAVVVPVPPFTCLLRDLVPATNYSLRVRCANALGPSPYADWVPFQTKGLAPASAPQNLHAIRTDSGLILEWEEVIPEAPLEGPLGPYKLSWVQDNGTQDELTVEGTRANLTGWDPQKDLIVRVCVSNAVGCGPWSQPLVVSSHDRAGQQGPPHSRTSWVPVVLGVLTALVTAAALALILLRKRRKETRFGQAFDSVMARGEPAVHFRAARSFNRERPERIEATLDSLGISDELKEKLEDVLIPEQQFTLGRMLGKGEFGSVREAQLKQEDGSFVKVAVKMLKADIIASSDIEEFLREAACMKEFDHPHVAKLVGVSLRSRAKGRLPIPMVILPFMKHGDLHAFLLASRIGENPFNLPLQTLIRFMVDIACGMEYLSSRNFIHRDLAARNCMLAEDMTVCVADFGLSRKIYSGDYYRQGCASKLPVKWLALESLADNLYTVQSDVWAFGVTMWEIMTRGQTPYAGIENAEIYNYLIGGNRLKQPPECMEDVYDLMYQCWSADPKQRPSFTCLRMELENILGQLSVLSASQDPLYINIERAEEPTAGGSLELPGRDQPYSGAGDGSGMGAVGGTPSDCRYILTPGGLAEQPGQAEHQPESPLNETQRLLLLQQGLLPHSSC
- MEASUREMENT PARAMETERS: at 0.1 µM
ENDPOINT NAME: inhibition (%)
Expressed in %, but write only the number.

Reported inhibition (Tyrosine-protein kinase receptor TYRO3 (Homo sapiens) (UniProt Q06418)) for entry COC(=O)c1sc(-n2cnc3cc(OC)c(OC)cc32)cc1OCc1ccccc1C(F)(F)F is 2.58

Entry COc1ccc(-c2nn3ncccc3c2-c2ccnc(Nc3ccc4c(c3)OCCO4)n2)cc1 : inhibition on Tyrosine-protein kinase receptor TYRO3 (Homo sapiens) (UniProt Q06418) = -0.58

Tested on Tyrosine-protein kinase receptor TYRO3 (Homo sapiens) (UniProt Q06418), the item CNC(=O)c1cccc(C#Cc2cncnc2Nc2ccc(OCc3cccc(F)c3)c(Cl)c2)c1 showed inhibition equal to 3.38

Fc1ccc(-c2cc(-c3c[nH]nc3-c3ccccn3)ccn2)cc1 on Tyrosine-protein kinase receptor TYRO3 (Homo sapiens) (UniProt Q06418) gives inhibition = 3.67

Item Nc1nc(-c2ccc(F)cc2)c(-c2ccc3ncccc3n2)s1 ; assay system Tyrosine-protein kinase receptor TYRO3 (Homo sapiens) (UniProt Q06418); inhibition reported as 3.01

Assay Tyrosine-protein kinase receptor TYRO3 (Homo sapiens) (UniProt Q06418), sample CN1CCC(n2cnc(-c3ccc(F)cc3)c2-c2ccnc(Nc3ccccc3)n2)CC1 , inhibition read: 2.41

Reported inhibition (Tyrosine-protein kinase receptor TYRO3 (Homo sapiens) (UniProt Q06418)) for entry Clc1ccc(-c2nn3ncccc3c2-c2ccnc(Nc3ccccc3)n2)cc1 is 1.14

Record for COc1ccc(CNC(=O)c2ccc(-c3cc(-c4nnc(C)o4)ccc3C)cc2)cc1 under target or system Tyrosine-protein kinase receptor TYRO3 (Homo sapiens) (UniProt Q06418): inhibition reported as 1.4

Fill in: Tyrosine-protein kinase receptor TYRO3 (Homo sapiens) (UniProt Q06418) inhibition for Fc1ccc(-c2nn3ccccc3c2-c2ccncc2)cc1 = 0.22

Tested on Tyrosine-protein kinase receptor TYRO3 (Homo sapiens) (UniProt Q06418): NS(=O)(=O)c1ccc(Nc2ncc(-c3ccccc3)o2)cc1 . Observed inhibition: 3.59

The observed inhibition for COc1ccc(-c2cc3c(N)ncnc3o2)cc1 when tested with Tyrosine-protein kinase receptor TYRO3 (Homo sapiens) (UniProt Q06418) stands at -0.51

Entry CC1=C(C(=O)Nc2cc(Cl)c3[nH]ncc3c2)C(c2ccc(C(F)(F)F)cc2)CC(=O)N1 (stereo unspecified) under Tyrosine-protein kinase receptor TYRO3 (Homo sapiens) (UniProt Q06418) had inhibition of 3.7

I looked up Nc1nc(-c2cccc(Cl)c2)c(-c2ccc3ncccc3n2)s1 and its inhibition for Tyrosine-protein kinase receptor TYRO3 (Homo sapiens) (UniProt Q06418) was 3.62

Assay Tyrosine-protein kinase receptor TYRO3 (Homo sapiens) (UniProt Q06418), sample CCc1nn2ncccc2c1-c1ccnc(NC2CC2)n1 , inhibition read: -0.14

Here O=C(Nc1n[nH]c2cc(-c3ccc(F)cc3)ccc12)C1CC1 was tested on Tyrosine-protein kinase receptor TYRO3 (Homo sapiens) (UniProt Q06418), and its inhibition came to 4

CNC(=O)c1cncc(/C=C/c2ccccc2Cl)c1 tested on Tyrosine-protein kinase receptor TYRO3 (Homo sapiens) (UniProt Q06418) gave inhibition: 0.43

Param item: COc1ccc2c(-c3ccnc(Nc4cccc(OC(F)(F)F)c4)n3)cnn2n1 ; param system: Tyrosine-protein kinase receptor TYRO3 (Homo sapiens) (UniProt Q06418); output inhibition: 4.51

I looked up Cc1ccc(O)cc1Nc1ccnc2cc(-c3ccccn3)ccc12 and its inhibition for Tyrosine-protein kinase receptor TYRO3 (Homo sapiens) (UniProt Q06418) was 4.12

Known value: Tyrosine-protein kinase receptor TYRO3 (Homo sapiens) (UniProt Q06418) inhibition of the compound Cc1cccc2c1NC(=O)/C2=N\Nc1ccc(S(N)(=O)=O)cc1 equals 3.05

Bench note, Tyrosine-protein kinase receptor TYRO3 (Homo sapiens) (UniProt Q06418): entry CCn1cc(-c2ccnc3[nH]ccc23)c(-c2cccc(NC(=O)Nc3ccc(OCc4ccccc4)cc3)c2)n1 , its inhibition = 0.03

Tested system Tyrosine-protein kinase receptor TYRO3 (Homo sapiens) (UniProt Q06418); inhibition recorded for [O-][S+]1CCN(Cc2ccc(-c3ccc4ncnc(Nc5ccc(OCc6cccc(F)c6)c(Cl)c5)c4c3)o2)CC1 was 3.67
